# study.target: TRβ (Homo sapiens, UniProt P10828)
# Sequence (P10828 217-461 limits assumed): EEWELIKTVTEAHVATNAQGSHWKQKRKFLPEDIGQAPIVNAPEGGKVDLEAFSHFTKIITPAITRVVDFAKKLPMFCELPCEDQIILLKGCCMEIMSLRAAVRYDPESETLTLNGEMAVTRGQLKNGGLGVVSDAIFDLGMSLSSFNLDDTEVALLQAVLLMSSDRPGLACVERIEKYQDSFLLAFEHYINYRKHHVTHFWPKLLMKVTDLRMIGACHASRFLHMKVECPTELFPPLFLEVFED
# procedure.text: Thyroid-hormone reporter-gene assay, TRβ (Gal4 DBD hybrid, luciferase, HEK293)
# applied.conditions: reporter cells derived from HEK293, 24 hr incubation, luciferase readout
pEC50: −log10 of the molar value.
assay.endpoint: pEC50

Answered examples (10):
- molecule: "CC(=O)Nc1cccc(-c2cc(Cc3c(Cl)cc(OCC(=O)O)cc3Cl)ccc2O)c1"
  study.target: "TRβ (Homo sapiens, UniProt P10828)"
  value.reported: "< 6.00"
- molecule: "CCc1ccc(F)c(-c2cc(Cc3c(Cl)cc(OCC(=O)O)cc3Cl)ccc2O)c1"
  study.target: "TRβ (Homo sapiens, UniProt P10828)"
  value.reported: "< 6.00"
- molecule: "O=C(O)COc1cc(Cl)c(Cc2ccc(O)c(-c3cccc(OC(F)(F)F)c3)c2)c(Cl)c1"
  study.target: "TRβ (Homo sapiens, UniProt P10828)"
  value.reported: "6.00 to 7.00"
- molecule: "C[C@@H](c1ccc(F)cc1)c1cc(Cc2c(Cl)cc(OCC(=O)O)cc2Cl)ccc1O (single isomer, unassigned)"
  study.target: "TRβ (Homo sapiens, UniProt P10828)"
  value.reported: "6.00 to 7.00"
- molecule: "CCCc1cccc(-c2cc(Cc3c(Cl)cc(OCC(=O)O)cc3Cl)ccc2O)c1"
  study.target: "TRβ (Homo sapiens, UniProt P10828)"
  value.reported: "6.00 to 7.00"
- molecule: "O=C(COc1cc(Cl)c(Cc2ccc(O)c(-c3cccc(OC(F)F)c3)c2)c(Cl)c1)N1CC1"
  study.target: "TRβ (Homo sapiens, UniProt P10828)"
  value.reported: "6.00 to 7.00"
- molecule: "COCc1cccc(-c2cc(Cc3c(Cl)cc(OCC(=O)O)cc3Cl)ccc2O)c1"
  study.target: "TRβ (Homo sapiens, UniProt P10828)"
  value.reported: "< 6.00"
- molecule: "O=C(O)COc1cc(Cl)c(Cc2ccc(O)c(Cc3ccc(CC(F)(F)F)cc3)c2)c(Cl)c1"
  study.target: "TRβ (Homo sapiens, UniProt P10828)"
  value.reported: "< 6.00"
- molecule: "Cc1cc(OCC(=O)O)cc(Cl)c1Cc1ccc(O)c(Cc2ccc(F)cc2)c1"
  study.target: "TRβ (Homo sapiens, UniProt P10828)"
  value.reported: "7.00 to 8.00"
- molecule: "O=C(O)COc1cc(Cl)c(Cc2ccc(O)c(-c3cc(OC(F)F)ccc3F)c2)c(Cl)c1"
  study.target: "TRβ (Homo sapiens, UniProt P10828)"
  value.reported: "7.00 to 8.00"

Prompt: // query pEC50 value for entry O=C(O)COc1cc(Cl)c(Cc2ccc(O)c(-c3cccc(OC(F)F)c3)c2)c(Cl)c1
Response: 6.00 to 7.00

Prompt: Also check O=C(O)COc1cc(Cl)c(Cc2ccc(O)c(C(CC(F)(F)F)c3ccc(F)cc3)c2)c(Cl)c1 (stereo not shown)
Response: 7.00 to 8.00

Prompt: Also check O=C(O)COc1cc(Cl)c(Cc2ccc(O)c(-c3ccoc3)c2)c(Cl)c1
Response: < 6.00
